target: human recombinant PLK4 (Homo sapiens (Human), UniProt O00444); experiment: PLK4 Biochemical Assay (ADP-Glo); details: 0.5 nM PLK4, 8.0 µM ATP, 4.7 µM MBP, 6 hours at RT
Sequence (O00444 whole entry): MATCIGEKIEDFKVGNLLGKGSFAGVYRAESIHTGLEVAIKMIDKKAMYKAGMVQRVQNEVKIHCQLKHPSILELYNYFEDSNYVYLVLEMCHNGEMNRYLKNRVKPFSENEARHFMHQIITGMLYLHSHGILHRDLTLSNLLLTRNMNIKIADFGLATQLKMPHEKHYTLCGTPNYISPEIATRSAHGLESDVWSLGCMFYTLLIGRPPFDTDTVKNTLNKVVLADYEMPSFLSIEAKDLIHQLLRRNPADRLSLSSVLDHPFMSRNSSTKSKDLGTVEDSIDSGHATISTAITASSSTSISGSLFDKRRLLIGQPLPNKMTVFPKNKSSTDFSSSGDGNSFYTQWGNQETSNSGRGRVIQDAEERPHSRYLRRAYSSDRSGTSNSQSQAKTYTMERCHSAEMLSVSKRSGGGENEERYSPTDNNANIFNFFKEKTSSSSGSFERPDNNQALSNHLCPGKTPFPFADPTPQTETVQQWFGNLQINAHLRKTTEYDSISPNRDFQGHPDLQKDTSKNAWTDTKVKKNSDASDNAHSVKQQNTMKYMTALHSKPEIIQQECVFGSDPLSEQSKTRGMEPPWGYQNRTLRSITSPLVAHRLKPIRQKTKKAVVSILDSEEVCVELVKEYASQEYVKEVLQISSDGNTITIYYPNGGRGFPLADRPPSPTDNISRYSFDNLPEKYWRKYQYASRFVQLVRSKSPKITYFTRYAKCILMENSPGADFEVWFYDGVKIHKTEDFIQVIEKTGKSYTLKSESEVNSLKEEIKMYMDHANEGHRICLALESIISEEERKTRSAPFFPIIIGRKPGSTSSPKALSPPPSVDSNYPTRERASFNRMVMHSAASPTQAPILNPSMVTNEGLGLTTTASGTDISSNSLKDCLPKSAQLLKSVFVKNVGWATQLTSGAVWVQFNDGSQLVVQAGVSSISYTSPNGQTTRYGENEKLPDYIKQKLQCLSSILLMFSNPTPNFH
pIC50: −log10 of the molar value.
Recorded pIC50 for the following compounds
measure_name: pIC50

| compound | experimental_value |
| --- | --- |
| COc1ccc2c(c1)[C@]1(C[C@H]1c1ccc3c(Nc4cccc5c4OCC5=O)n[nH]c3c1)C(=O)N2 [Example 31] | 8.52 |
| COc1cnc(C)nc1Nc1n[nH]c2cc([C@@H]3C[C@]34C(=O)Nc3cccc(F)c34)ccc12 [Example 130] | 6.22 |
| CCOc1nc(S(C)(=O)=O)ccc1Nc1n[nH]c2cc([C@@H]3C[C@@]34C(=O)Nc3ccc(OC)cc34)ccc12 [Example 202] | 8.57 |
| COc1ccc2c(c1)[C@]1(C[C@H]1c1ccc3c(Nc4nc(N5CCOCC5)ncc4OC)n[nH]c3c1)C(=O)N2 [Example 97] | 8.94 |
| COc1ccc2c(c1)[C@]1(C[C@H]1c1ccc3c(Nc4cc(S(=O)(=O)N(C)C)ccc4OC)n[nH]c3c1)C(=O)N2 [Example 179] | 8.42 |
| COc1ccc2c(c1)[C@]1(C[C@H]1c1ccc3c(Nc4nc5ccccc5cc4OC)n[nH]c3c1)C(=O)N2 [Example 163] | 8.82 |
| COc1ccc2c(c1)[C@]1(C[C@H]1c1ccc3c(Nc4ncc(S(C)(=O)=O)nc4OC)n[nH]c3c1)C(=O)N2 [Example 242] | 8.19 |

====

molecular target: human recombinant Aurora A (Homo sapiens (Human)); experiment: Aurora A Kinase Biochemical Assay (ADP-Glo); conditions: ratio of Aurora A IC50 to PLK4 IC50 (selectivity)
Sequence (O14965 whole entry): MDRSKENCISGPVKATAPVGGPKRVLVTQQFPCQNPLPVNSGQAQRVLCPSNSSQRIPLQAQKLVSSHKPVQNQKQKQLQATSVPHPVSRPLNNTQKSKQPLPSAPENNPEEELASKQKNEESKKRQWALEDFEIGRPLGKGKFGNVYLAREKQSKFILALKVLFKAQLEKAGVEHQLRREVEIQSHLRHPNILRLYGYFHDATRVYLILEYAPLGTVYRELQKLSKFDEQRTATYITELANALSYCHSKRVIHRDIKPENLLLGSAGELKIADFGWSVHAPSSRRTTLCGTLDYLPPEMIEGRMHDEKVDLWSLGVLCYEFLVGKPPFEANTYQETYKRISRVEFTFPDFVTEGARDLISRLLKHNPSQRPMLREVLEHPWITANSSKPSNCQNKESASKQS

| compound_structure | [Aurora A IC50 (nM)]/[PLK4 IC50 (nM)] |
| --- | --- |
| COc1ccc2c(c1)[C@]1(C[C@H]1c1ccc3c(Nc4nc(C)nc(N5CC(O)C5)c4Cl)n[nH]c3c1)C(=O)N2 | 2006.018 |
| CCOc1cc(S(C)(=O)=O)cnc1Nc1n[nH]c2cc([C@@H]3C[C@@]34C(=O)Nc3ccc(Cl)cc34)ccc12 | 377.9648 |
| COc1ccc2c(c1)[C@]1(C[C@H]1c1ccc3c(Nc4ncc(C(=O)N5CC(OC)C5)cc4OC)n[nH]c3c1)C(=O)N2 | 2053.4808 |
| COc1ccc2c(c1)[C@]1(C[C@H]1c1ccc3c(Nc4nc(C)ncc4C4CC4)n[nH]c3c1)C(=O)N2 | 814 |
| COc1ccc2c(c1)[C@]1(C[C@H]1c1ccc3c(Nc4cnc(S(C)(=O)=O)cc4OC)n[nH]c3c1)C(=O)N2 | 2066.9875 |
| COc1ccc2c(c1)[C@]1(C[C@H]1c1ccc3c(Nc4nc(C#N)ncc4OC)n[nH]c3c1)C(=O)N2 | 324.94 |
| COc1ccc2c(c1)[C@]1(C[C@H]1c1ccc3c(Nc4ccc(N5CCCC5=O)nc4OC)n[nH]c3c1)C(=O)N2 | 986.6539 |

====

molecular target: human recombinant PLK4 (Homo sapiens (Human), UniProt O00444); test: PLK4 Biochemical Assay (ADP-Glo); conditions: 0.5 nM PLK4, 8.0 µM ATP, 4.7 µM MBP, 6 hours at RT
Recorded IC50 for the following compounds
measure_name: IC50

| compound | experimental_value |
| --- | --- |
| COc1ccc2c(c1)[C@]1(C[C@H]1c1ccc3c(Nc4cc(C(=O)N(C)C)ccc4OC)n[nH]c3c1)C(=O)N2 | 2.84 nM |
| COc1ccc2c(c1)[C@]1(C[C@H]1c1ccc3c(Nc4ccc(C(=O)N5CC6CCC(C5)O6)nc4OC)n[nH]c3c1)C(=O)N2 | 0.843 nM |
| COc1ccc2c(c1)[C@]1(C[C@H]1c1ccc3c(Nc4ccc([S+](C)[O-])nc4OC)n[nH]c3c1)C(=O)N2 (single isomer, unassigned) [Example 239] | 1.69 nM |
| CNS(=O)(=O)c1cc(OC)c(Nc2n[nH]c3cc([C@@H]4C[C@@]45C(=O)Nc4ccc(OC)cc45)ccc23)cc1C | 1.35 nM |
| COc1ccc2c(c1)[C@]1(C[C@H]1c1ccc3c(Nc4nccc5c4OC[C@H]5CO)n[nH]c3c1)C(=O)N2 (single isomer, unassigned) | 3.21 nM |
| COc1ccc2c(c1)[C@]1(C[C@H]1c1ccc3c(Nc4ncnc(N5C6CCC5COC6)c4OC)n[nH]c3c1)C(=O)N2 | 12.5 nM |

====

target: human recombinant PLK4 (Homo sapiens (Human)); assay: PLK4 Biochemical Assay (ADP-Glo); conditions: 0.5 nM PLK4, 8.0 µM ATP, 4.7 µM MBP, 6 hours at RT
Recorded IC50 for the following compounds

| compound_structure | measured_target | IC50, nM |
| --- | --- | --- |
| COc1ccc2c(c1)[C@]1(C[C@H]1c1ccc3c(Nc4nc(C)cnc4OC)n[nH]c3c1)C(=O)N2 | human recombinant PLK4 (Homo sapiens (Human)) | 3.06 |
| COc1ccc2c(c1)[C@]1(C[C@H]1c1ccc3c(Nc4nc(C5COC5)ncc4Cl)n[nH]c3c1)C(=O)N2 | human recombinant PLK4 (Homo sapiens (Human)) | 7.32 |
| CCP(=O)(CC)c1ccc(OC)c(Nc2n[nH]c3cc([C@@H]4C[C@@]45C(=O)Nc4ccc(OC)cc45)ccc23)c1 | human recombinant PLK4 (Homo sapiens (Human)) | 7.91 |
| COc1ccc2c(c1)[C@]1(C[C@H]1c1ccc3c(Nc4cncc(C5COC5)n4)n[nH]c3c1)C(=O)N2 | human recombinant PLK4 (Homo sapiens (Human)) | 8.04 |

====

Recorded pIC50 for the following compounds
target: human recombinant PLK4 (Homo sapiens (Human)); assay: PLK4 Biochemical Assay (ADP-Glo); conditions: 0.5 nM PLK4, 8.0 µM ATP, 4.7 µM MBP, 6 hours at RT
pIC50: −log10 of the molar value.
measure_name: pIC50

| compound_structure | measure_name | experimental_value |
| --- | --- | --- |
| CCOc1cnc(SC)nc1Nc1n[nH]c2cc([C@@H]3C[C@@]34C(=O)Nc3ccc(OC)cc34)ccc12 | pIC50 | 8.81 |
| COc1ccc2c(c1)[C@]1(C[C@H]1c1ccc3c(Nc4ncnc(N5C[C@@H](C)O[C@@H](C)C5)c4OC)n[nH]c3c1)C(=O)N2 | pIC50 | 8.15 |
| CCN1C(=O)[C@@]2(C[C@H]2c2ccc3c(Nc4ncnc(N5CC(O)C5)c4Cl)n[nH]c3c2)c2cc(OC)ccc21 | pIC50 | 8.36 |
| CCOc1cnc(C)nc1Nc1n[nH]c2cc([C@@H]3C[C@@]34C(=O)Nc3ccc(OC)cc34)ccc12 | pIC50 | 8.75 |
| CCOc1cc(S(=O)(=O)NC)cnc1Nc1n[nH]c2cc([C@@H]3C[C@@]34C(=O)Nc3ccc(OC)cc34)ccc12 | pIC50 | 9.23 |
| COc1ccc2c(c1)[C@]1(C[C@H]1c1ccc3c(Nc4cc(N5CCOCC5)nc(C(C)C)n4)n[nH]c3c1)C(=O)N2 | pIC50 | 8.21 |
| COc1ccc2c(c1)[C@]1(C[C@H]1c1ccc3c(Nc4ccncc4OC)n[nH]c3c1)C(=O)N2 | pIC50 | 7.61 |

====

biological target: human recombinant Aurora B (Homo sapiens (Human)); experiment: Aurora B Kinase Biochemical Assay (ADP-Glo); conditions: ratio of Aurora B IC50 to PLK4 IC50 (selectivity)
Sequence (Q96GD4 whole entry): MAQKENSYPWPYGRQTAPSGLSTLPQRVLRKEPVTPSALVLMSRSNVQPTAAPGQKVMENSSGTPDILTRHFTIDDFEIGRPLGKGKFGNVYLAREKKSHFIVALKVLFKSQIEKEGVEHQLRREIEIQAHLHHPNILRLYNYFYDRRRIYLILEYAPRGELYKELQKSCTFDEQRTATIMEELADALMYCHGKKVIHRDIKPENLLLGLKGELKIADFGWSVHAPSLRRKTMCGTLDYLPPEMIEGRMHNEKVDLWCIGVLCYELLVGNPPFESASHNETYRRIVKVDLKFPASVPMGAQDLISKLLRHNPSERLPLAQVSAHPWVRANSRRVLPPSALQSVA
Lab note: compare [Aurora B IC50 (nM)]/[PLK4 IC50 (nM)] with 200, writing t if less and f if equal or more.

| compound | class |
| --- | --- |
| COc1ccc2c(c1)[C@]1(C[C@H]1c1ccc3c(Nc4nc(N5CCC5)ncc4OC)n[nH]c3c1)C(=O)N2 [Example 157] | f |
| COc1ccc2c(c1)[C@]1(C[C@H]1c1ccc3c(Nc4ncc(S(C)(=O)=O)nc4OC)n[nH]c3c1)C(=O)N2 [Example 242] | t |
| COc1ccc2c(c1)[C@]1(C[C@H]1c1ccc3c(Nc4cc(C)nnc4OC)n[nH]c3c1)C(=O)N2 [Example 145] | f |
| COc1cnc(OC)c(Nc2n[nH]c3cc([C@@H]4C[C@@]45C(=O)Nc4ccc(OC)cc45)ccc23)c1 [Example 164] | t |
| COc1ccc2c(c1)[C@]1(C[C@H]1c1ccc3c(Nc4ccc(C(=O)N(C)C)nc4Cl)n[nH]c3c1)C(=O)N2 [Example 251] | f |
| COc1ccc2c(c1)[C@]1(C[C@H]1c1ccc3c(Nc4ncc(S(=O)(=O)C(F)F)cc4OC)n[nH]c3c1)C(=O)N2 [Example 280] | f |
| COc1ccc2c(c1)[C@]1(C[C@H]1c1ccc3c(Nc4ncc(S(C)(=O)=O)cc4Cl)n[nH]c3c1)C(=O)N2 [Example 247] | f |
| CCOc1cc(=O)n(C)nc1Nc1n[nH]c2cc([C@@H]3C[C@@]34C(=O)Nc3ccc(OC)cc34)ccc12 [Example 277] | f |
| COc1ccc2c(c1)[C@]1(C[C@H]1c1ccc3c(Nc4ncc(S(=O)(=O)N5CC6CCC(C5)O6)cc4OC)n[nH]c3c1)C(=O)N2 [Example 256] | f |
| COc1ccc2c(c1)[C@]1(C[C@H]1c1ccc3c(Nc4ccc(C(=O)N5[C@H](C)CCC[C@@H]5C)nc4OC)n[nH]c3c1)C(=O)N2 [Example 245] | f |
| COc1ccc2c(c1)[C@]1(C[C@H]1c1ccc3c(Nc4cc(C)ncc4OC)n[nH]c3c1)C(=O)N2 [Example 86] | f |
| COc1ccc2c(c1)[C@]1(C[C@H]1c1ccc3c(Nc4ncnc(N5CC(O)C5)c4OC)n[nH]c3c1)C(=O)N2 [Example 43] | t |
| CCOc1nc(C(=O)N(C)C)ccc1Nc1n[nH]c2cc([C@@H]3C[C@@]34C(=O)Nc3ccc(OC)cc34)ccc12 [Example 214] | t |
| COc1ccc2c(c1)[C@]1(C[C@H]1c1ccc3c(Nc4cc(C(C)C)nc(C)n4)n[nH]c3c1)C(=O)N2 [Example 151] | t |
| COc1ccc2c(c1)[C@]1(C[C@H]1c1ccc3c(Nc4ncc(C(=O)N(C)C)cc4OC)n[nH]c3c1)C(=O)N2 [Example 197] | t |
| COc1ccc2c(c1)[C@]1(C[C@H]1c1ccc3c(Nc4cc(OCCO)ncn4)n[nH]c3c1)C(=O)N2 [Example 38] | t |
| COc1ccc2c(c1)[C@]1(C[C@H]1c1ccc3c(Nc4nc(C)ncc4SC)n[nH]c3c1)C(=O)N2 [Example 162] | t |
| COc1ccc2c(c1)[C@]1(C[C@H]1c1ccc3c(Nc4cc(OC)c(S(N)(=O)=O)cc4OC)n[nH]c3c1)C(=O)N2 [Example 212] | f |
| COc1ccc2c(c1)[C@]1(C[C@H]1c1ccc3c(Nc4cc(N5CC(OC)C5)ncn4)n[nH]c3c1)C(=O)N2 [Example 35] | t |
| CCS(=O)(=O)c1ccc(OC)c(Nc2n[nH]c3cc([C@@H]4C[C@@]45C(=O)Nc4ccc(OC)cc45)ccc23)c1 [Example 175] | f |
| COc1ccc2c(c1)[C@]1(C[C@H]1c1ccc3c(Nc4nc(C5CCOC5)ncc4OC)n[nH]c3c1)C(=O)N2 (single isomer, unassigned) [Example 201] | f |
